Hello, the source for this data is patent US20250057950A1, in case you need it.

What EC50 was measured for each of the following?
target: T1, human G protein-coupled receptor class C group 5 member D (GPRC5D) protein (human, UniProt Q9NZD1 1-345); assay: flow cytometry (FACS) on MM1S myeloma cells
T1 construct: whole, on cells; The same protein on several cell lines; also called HuGPRC5D; CHO-GPRC5D
T1 sequence (Q9NZD1 whole entry): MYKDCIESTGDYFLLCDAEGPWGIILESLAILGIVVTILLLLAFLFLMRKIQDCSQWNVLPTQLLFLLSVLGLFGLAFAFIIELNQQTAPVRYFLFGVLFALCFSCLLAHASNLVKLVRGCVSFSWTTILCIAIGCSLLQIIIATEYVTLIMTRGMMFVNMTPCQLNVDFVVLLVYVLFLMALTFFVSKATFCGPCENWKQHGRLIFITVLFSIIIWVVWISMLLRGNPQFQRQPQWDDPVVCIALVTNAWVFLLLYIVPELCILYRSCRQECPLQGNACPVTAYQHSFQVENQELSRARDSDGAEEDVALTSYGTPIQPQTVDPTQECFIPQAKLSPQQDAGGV
// note: answer is a bare numeric in µg/mL

Output measured EC50 for this item: 3B5 VHH (VHH, From the synthetic nanobody library NanoOri_1.0 (Caplacizumab backbone)) VHH: EVQLVESGGGLVQPGGSLRLSCAASGFIFSRYGMGWFRQAPGKGRELVAAINWSDGTTYYPDSVEGRFTISRDNAKRMVYLQMNSLRAEDTAVYYCAADRRLRSQTGYDYWGQGTQVTVSS 0.0439

Specify EC50 for 4A2 VHH (VHH) VHH: EVQLVESGGGLVQPGGSLRLSCAASGFIFSRYDMGWFRQAPGKGRELVAVITWGGGSTYYPDSVEGRFTISRDNAKRMVYLQMNSLRAEDTAVYYCAARSASAYRTGRLEYNYWGQGTQVTVSS and stop. 0.0195

Input 4B3 VHH (VHH, also called G5VHH2) VHH: EVQLVESGGGLVQPGGSLRLSCAASGLIFSRYVMGWFRQAPGKGRELVAFINSSGGSTNYPDSVEGRFTISRDNAKRMVYLQMNSLRAEDTAVYYCAASSRTSTTRGYNYWGQGTQVTVSS , output reported EC50. 0.658

Please supply the value of reported EC50 for the item 3E7 VHH (VHH, also called G5VHH1) VHH: EVQLVESGGGLVQPGGSLRLSCAASGRIFSRDAMGWFRQAPGKGRELVAAINSSGGNTYYPDSVEGRFTISRDNAKRMVYLQMNSLRAEDTAVYYCAARGVRWTSTTAYGYNYWGQGTQVTVSS 0.286
